Test system: P. aeruginosa PAO1 biofilm
Assay: crystal violet static biofilm inhibition assay
Type: cell-based, Pseudomonas aeruginosa
Settings: Pseudomonas aeruginosa, PAO1; added exogenously to solution; read-out: IC50 for biofilm inhibition
Please go through the items and note down their IC50.
For clarity, give the value followed by its unit.

Tell me measured IC50 for `Nc1nc2ccccc2[nH]1` please.
47 µM

Tell me measured IC50 for `Cc1cc2nc(N)[nH]c2cc1C` please.
4 µM

---

Tested on: P. aeruginosa PAO1 biofilm
Assay: crystal violet static biofilm inhibition assay
Assay type: cell-based, Pseudomonas aeruginosa
Conditions: Pseudomonas aeruginosa, PAO1; 24 h incubation; CV assay; read-out: 24 h biofilm IC50
assay.endpoint: IC50 (µM)
Write the value in µM as a bare number.

Provide IC50, recorded with P. aeruginosa PAO1 biofilm, of `Nc1nc2cc([N+](=O)[O-])ccc2[nH]1`
63.1

Provide IC50, recorded with P. aeruginosa PAO1 biofilm, of `Nc1nc2ccccc2[nH]1`
46.8

Provide IC50, recorded with P. aeruginosa PAO1 biofilm, of Nc1nc(-c2ccc(/C=C/c3ccccc3)cc2)c[nH]1 [Compound 2, 4-(E)-Stilbene-2-aminoimidazole]
18

Provide IC50, recorded with P. aeruginosa PAO1 biofilm, of `COc1ccc2[nH]c(N)nc2c1`
80.1

Provide IC50, recorded with P. aeruginosa PAO1 biofilm, of `Cc1cccc2[nH]c(N)nc12`
38.7

Provide IC50, recorded with P. aeruginosa PAO1 biofilm, of `Nc1nc2cc(Br)ccc2[nH]1`
22.2

Provide IC50, recorded with P. aeruginosa PAO1 biofilm, of `N#Cc1ccc2[nH]c(N)nc2c1`
175

Provide IC50, recorded with P. aeruginosa PAO1 biofilm, of Nc1nc2cc3ccccc3cc2[nH]1 [Compound 24, 2-Amino-1H-naphtho[2,3-d]imidazole]
48.3

---

Please go through the items and note down their IC50.
System: P. aeruginosa PAO1 biofilm
Assay: crystal violet static biofilm inhibition assay
Type: cell-based, Pseudomonas aeruginosa
Details: Pseudomonas aeruginosa, PAO1; 24 h incubation; CV assay; read-out: 24 h biofilm IC50
Write the value in µM as a bare number.

Tell me measured IC50 for `Cc1ccc2[nH]c(N)nc2c1` please.
25.4

Tell me measured IC50 for `Nc1nc2cc(Cl)ccc2[nH]1` please.
27.5

Tell me measured IC50 for `COC(=O)c1ccc2[nH]c(N)nc2c1` please.
139

Tell me measured IC50 for `Nc1nc2ccc(/C=C/c3ccccc3)cc2[nH]1` please.
8.9

Tell me measured IC50 for `Nc1nc2cc(I)ccc2[nH]1` please.
20.3

Tell me measured IC50 for `Cc1cc2nc(N)[nH]c2cc1C` please.
4

Tell me measured IC50 for `Nc1nc2cc(F)ccc2[nH]1` please.
35.2
